Would you kindly list TGI for each of these compounds?
- Test system: KM12 colon
- EXPERIMENT_SUMMARY: NCI tumour cell line growth inhibition, 48 h
Answers are plain numbers, in µM.

Solved entries:
COC(=O)C(=Cc1ccccc1[N+](=O)[O-])C(=O)OC: 10
COc1cc(C(=O)/C=C/c2c(C)n([O-])c3ccc(C(F)(F)F)cc3[n+]2=O)cc(OC)c1OC: 34.3
O/N=C(\C(=N/O)Nc1ccc(-c2ccc(NC(=N/O)/C(=N\O)c3ccccc3)cc2)cc1)c1ccccc1: 33.6
COc1ccc(C(O)c2cc3c(N)c(C(=O)Nc4ccc(Br)cc4)sc3nc2C)cc1 (stereo unspecified): 11.1
Cc1ccc(/C=C2\CN(C)CC3=C2NC(=S)NC3c2ccc(C)cc2)cc1 (stereo unspecified): 39

Kindly give each listed record's TGI.
1. C=C(C(=O)OC1C(CO)OC(OCC2CC[C@@H]3C[C@]4(OC(=O)C3=C)C(C)=CC(=O)C24)C(O)C1O)[C@@H]1CCC(CO)C2C(=O)C=C(C)[C@@]2(O)C1 (stereo partly specified)
2. C/C(=N/NC(=S)N1CCCCC1)c1cccc(/C(C)=N\NC(=S)N2CCCCC2)n1
3. COc1ccc(/C=C/C(=O)c2ccc(NC(=O)CSc3nnc(-c4ccc(OC)c(OC)c4)n3-c3ccccc3)cc2)cc1

8.31
6.14
5.54

====

- System: CCRF-CEM leukemia
- EXPERIMENT_SUMMARY: NCI tumour cell line growth inhibition, 48 h
EXPERIMENTAL_ENDPOINT: TGI

List TGI for every entry below, keeping the order given.
1. CC(=O)Nc1ccc(C2C(C(=O)Nc3ccccc3C)=C(C)NC(C)=C2C(=O)Nc2ccccc2C)cc1
2. Nc1nonc1-c1nc2cnccc2n1C1CCCCC1
3. CC/C(=C(\c1ccc(Cl)cc1)c1ccc(OCCN2CCCCC2)cc1)c1ccc(O)cc1
4. C=C1CCC(O)C/C1=C/C=C1\CCCC2(C)C1CCC2C(C)CCCC(C)C (configuration not stated)
5. CC1=CP(=O)(OC(C)C)CC(C)=C1Cl (configuration not stated)

["> 100 µM", "> 25 µM", "4.93 µM", "> 65.4 µM", "> 100 µM"]

State the recorded TGI for every item in the following list.
1. CCCCCC(=O)n1[nH]c(=O)n(-c2ccc(OC)cc2)c1=O
2. NC(C(=O)O)c1cc(=O)[nH]o1 (configuration not stated)

1. > 100 µM
2. > 100 µM

====

Consider the following compounds; for each one, report its TGI.
- System: OVCAR-3 ovarian
- EXPERIMENT_SUMMARY: NCI tumour cell line growth inhibition, 48 h
Where a SMILES comes first, the peptide text is derived from it. [ ]: non-standard residue; d: D form. The star is where a group is joined. NMeF = CN[CH](Cc1ccccc1)C(=O)O; NMeV = CN[CH](C(=O)O)C(C)C; Boc = CC(C)(C)OC(=O)*

Below, 3 compounds whose answers are already recorded.
CC1(C)C2CCC1(C)[C@H](O)[C@H]2Nc1cc(C(F)(F)F)cc(C(F)(F)F)c1 (some centres undefined): 6.01 µM
CC(C)CC(N=Cc1nc(-c2ccccc2)oc1O)C(=O)O (centres undefined): > 100 µM
CC(C)C(NC(=O)OC(C)(C)C)C(=O)N(C)C(Cc1ccccc1)C(=O)N(C)C(C(=O)N(C)C(C(=O)O)C(C)C)C(C)C (centres undefined) (Boc-V[NMeF][NMeV][NMeV]-OH; configuration not given here): > 100 µM

Moving on to the next compound.
State its TGI for this compound: N#CC(C#N)=c1ccc(=C2N3CCCC3CN2C23CC4CC(CC(C4)C2)C3)cc1 (centres undefined)
> 100 µM

====

- Test system: KM12 colon
- EXPERIMENT_SUMMARY: NCI tumour cell line growth inhibition, 48 h
EXPERIMENTAL_ENDPOINT: TGI

# count of solved cases: 5
CCCCCc1cccc(=O)o1: > 100 µM
Cn1c(N)c(Cc2ccc(Cl)cc2)c(=O)[nH]c1=O: > 100 µM
O=c1c2ccccc2nc(-c2ccccc2Cl)n1NCC1(O)OCC(O)C(O)C1O (stereo not drawn): > 100 µM
COc1ccc2c3c([nH]c2c1CC=C(C)C)C(=O)C=C(C)C3=O: > 25 µM
CCc1nc(N)nc(N)c1-c1ccc2c(c1)nnn2CCc1ccccc1: > 64.1 µM

Record TGI per entry; entries follow.
1. C/C(O)=c1\cc(C#N)c(=C(C#N)C#N)nc1C
2. NC(=Nc1ccc(Cl)cc1)c1ccccc1N
3. O=C(CC(=O)Nc1ccc(C(=O)O)cc1)Nc1ccc(C(=O)O)cc1

1. > 100 µM
2. > 100 µM
3. > 100 µM
